TGI for assorted compounds
Test system: RPMI-8226 leukemia
ASSAY TEXT: NCI tumour cell line growth inhibition, 48 h

Before answering, review these 2 worked examples.
>  <COMPOUND>
CC(C)(C)c1cc(C(C)(C)C)c2sc(=O)oc2c1O

>  <SYSTEM TESTED>
RPMI-8226 leukemia

>  <REPORTED PROPERTY>
TGI

>  <RESULT VALUE>
> 100 µM

$$$$
>  <COMPOUND>
Cc1ncc([N+](=O)[O-])n1CCOc1ccc(C(=O)/C=C/c2ccc(C(F)(F)F)cc2)cc1

>  <SYSTEM TESTED>
RPMI-8226 leukemia

>  <REPORTED PROPERTY>
TGI

>  <RESULT VALUE>
4.37 µM

$$$$

Entry COc1cc(/C=C2\C(=O)N(c3ccc(Cl)cc3)C(c3ccccc3)S2(=O)=O)cc(OC)c1OC (stereo not drawn) , TGI reported as > 100 µM

Entry "O=c1ccc(=O)c2c1c1[nH]c3ccccc3c1c1c(=O)c3ccccc3c(=O)c21" , TGI reported as > 10 µM

Entry O=C(CN1CCCC1)Nc1ccc2c(c1)C1Oc3ccccc3CC1CO2 (stereo not drawn) , TGI reported as 78.9 µM

Entry "O=C1Cc2c([nH]c3ccccc23)-c2cc(Br)ccc2N1" , TGI reported as > 100 µM

Entry "COc1cc(/C=C/C(=O)/C=C/c2ccc(-n3ccnc3)cc2)ccc1O" , TGI reported as 4.46 µM

====

GI50 for assorted molecules
Tested on: A549 NSCLC
ASSAY TEXT: NCI tumour cell line growth inhibition, 48 h

Before answering, review these 3 worked examples.
>  <MOLECULE>
O=C([CH-]C(=O)c1ccccc1)c1ccccc1.[CH2-]C.[CH2-]C.[Tl+3]

>  <RESULT VALUE>
20.7 µM

$$$$
>  <MOLECULE>
OCCN1CCCN(CCCN2c3ccccc3Sc3ccc(C(F)(F)F)cc32)CC1

>  <RESULT VALUE>
4.69 µM

$$$$
>  <MOLECULE>
C#CCN(CCCOc1ccc(Cl)cc1Cl)CCCSC(=O)CCCCCN1/C(=C\C=C2/CCCC(/C=C/C3=[N+](CCCCCC(=O)[O-])c4ccccc4C3(C)C)=C2Cl)C(C)(C)c2ccccc21

>  <RESULT VALUE>
3.22 µM

$$$$

Entry "C=C(c1ccc(C(=O)NCCCn2ccnc2)cc1)c1cc2c(cc1C)C(C)(C)CCC2(C)C" , GI50 reported as 1.14 µM

Entry COc1cc2c(cc1OC)C(Sc1ccc(Cl)cc1)c1c(nc(N)c(C#N)c1N)O2 (stereo not drawn) , GI50 reported as 1.75 µM

Entry CCCCCCC1CCCCN1C(c1ccccc1)C(O)c1ccccc1 (stereo not drawn) , GI50 reported as 7.62 µM

Entry "COc1cc(-c2ccc[nH]2)[nH]c1/C=C1\N=C(C)C(C(=O)NC(C)C)=C1C" , GI50 reported as 2.94 µM

Entry "O=C(NCCNC1=CC(=O)c2nc3ccccc3c3ccnc1c23)c1cnccn1" , GI50 reported as 36.3 µM

Entry "CC(C)(C)OC(=O)CC(S(=O)(=O)c1ccccc1)S(=O)(=O)c1ccccc1" , GI50 reported as 18.3 µM

Entry "COc1ccc(C2=NOC3=c4ccccc4=CSC3=C2c2ccccc2)cc1" , GI50 reported as > 100 µM

Entry "Nc1nc2c([nH]1)c1[nH]c3ccccc3c1c1[nH]c3ccccc3c21" , GI50 reported as 17.1 µM

Entry Cc1nc2sc(C(=O)Nc3cccc(Cl)c3)c(N)c2cc1C(O)c1ccccc1 (stereo not drawn) , GI50 reported as 1.59 µM

Entry "CNc1ccc(CSc2ccc(C)cc2)cc1" , GI50 reported as 5.34 µM

====

Tested on: RPMI-8226 leukemia
ASSAY TEXT: NCI tumour cell line growth inhibition, 48 h; in the data active means GI50 below about 0.43 µM; inactive means the rest
The reply should be one of these categories: active, inactive

Fill in: this test's call for "Oc1ccccc1/C=N/c1nc(-c2ccccc2)cs1" is ___
inactive

Fill in: this test's call for "O=C(/C=C/c1ccccn1)c1ccccc1" is ___
inactive

Fill in: this test's call for "O=[N+]([O-])/C(=C/C=C/c1ccccc1)c1ccccc1" is ___
active

Fill in: this test's call for CCOC(=O)c1c(-c2ccc(Cl)cc2)c(C#N)c(=S)n(C2OC(COC(C)=O)C(OC(C)=O)C(OC(C)=O)C2OC(C)=O)c1C (stereo not given) is ___
inactive

Fill in: this test's call for "O=C(Nc1ccc(-n2cc(-c3ccncc3)c(-c3ccc(Cl)c(O)c3)n2)cc1)c1ccc(Cl)c(Cl)c1" is ___
inactive

====

TGI for assorted molecules
Test system: SN12C renal
ASSAY TEXT: NCI tumour cell line growth inhibition, 48 h

>  <MOLECULE>
C=C(C)C1CCC2(C)C1CCC1(C)C2CCC2C3(C)C4OC(OC4=O)C(C)(C)C3CCC21C (stereo not given)

>  <TGI>
> 100 µM

$$$$
>  <MOLECULE>
COc1cc(/C=C2\C(=O)N(c3ccc(Cl)cc3)C(c3ccccc3)S2(=O)=O)cc(OC)c1OC (stereo not given)

>  <TGI>
> 100 µM

$$$$
>  <MOLECULE>
CC(C)(C)c1cc(C(C)(C)C)c2sc(=O)oc2c1O

>  <TGI>
27.1 µM

$$$$
>  <MOLECULE>
CCOC(=O)CSc1nc(-c2ccc(Cl)cc2)c(C#N)c(=O)[nH]1

>  <TGI>
> 100 µM

$$$$

Please find the next molecule below.
Observed TGI on SN12C renal, entry "CC(=O)OCCc1cc2ccccc2oc1=O" , equals > 100 µM

====

Tested on: NCI/ADR-RES ovarian
ASSAY TEXT: NCI tumour cell line growth inhibition, 48 h
REPORTED PROPERTY: TGI

Before answering, review these 3 worked examples.
>  <MOLECULE>
Nc1c(-c2ccccc2)c2ccc([N+](=O)[O-])cc2c(=O)n1-c1cccc(C(=O)O)c1

>  <TGI>
> 100 µM

$$$$
>  <MOLECULE>
O=C(Cc1csc2nc(-c3ccc(Br)cc3)cn12)N/N=C/c1ccccc1O

>  <TGI>
6.83 µM

$$$$
>  <MOLECULE>
CNc1ccc(CSc2ccc(C)cc2)cc1

>  <TGI>
> 100 µM

$$$$

Observed TGI on NCI/ADR-RES ovarian, entry "Cc1ncc([N+](=O)[O-])n1CCOc1ccc(C(=O)/C=C/c2ccc(C(F)(F)F)cc2)cc1" , equals 9.29 µM

Observed TGI on NCI/ADR-RES ovarian, entry CC1CC(C)(C)CC(OCCN2CCCCC2)(c2ccccc2)C1 (stereo not given) , equals 33.9 µM

====

GI50 for assorted compounds
Test system: HL-60(TB) leukemia
ASSAY TEXT: NCI tumour cell line growth inhibition, 48 h

Before answering, review these 10 worked examples.
>  <COMPOUND>
COC(=O)c1sc(=S)c2sc(C(=O)OC)c(C(=O)OC)c2c1C(=O)OC

>  <SYSTEM TESTED>
HL-60(TB) leukemia

>  <GI50>
21900 nM

$$$$
>  <COMPOUND>
CNc1ccc(CSc2ccc(C)cc2)cc1

>  <SYSTEM TESTED>
HL-60(TB) leukemia

>  <GI50>
1320 nM

$$$$
>  <COMPOUND>
CC(C)(C)OC(=O)CC(S(=O)(=O)c1ccccc1)S(=O)(=O)c1ccccc1

>  <SYSTEM TESTED>
HL-60(TB) leukemia

>  <GI50>
3190 nM

$$$$
>  <COMPOUND>
COc1ccc([C@H]2c3[nH]c4ccccc4c3C[C@H]3C(=O)N(CCCCCCC(=O)NO)CC(=O)N23)cc1

>  <SYSTEM TESTED>
HL-60(TB) leukemia

>  <GI50>
1190 nM

$$$$
>  <COMPOUND>
O=[N+]([O-])/C(=C/C=C/c1ccccc1)c1ccccc1

>  <SYSTEM TESTED>
HL-60(TB) leukemia

>  <GI50>
1090 nM

$$$$
>  <COMPOUND>
O=C(/C=C/c1ccccn1)c1ccccc1

>  <SYSTEM TESTED>
HL-60(TB) leukemia

>  <GI50>
1880 nM

$$$$
>  <COMPOUND>
Clc1cc(Cl)cc(Nc2ccc3c(OCCCN4CCOCC4)cccc3n2)c1

>  <SYSTEM TESTED>
HL-60(TB) leukemia

>  <GI50>
2110 nM

$$$$
>  <COMPOUND>
COc1ccc(-c2nn(-c3cccc(Cl)c3)cc2-c2c(C#N)c(=O)n3[nH]c(-c4ccc(C)o4)nc3c2C#N)cc1

>  <SYSTEM TESTED>
HL-60(TB) leukemia

>  <GI50>
4880 nM

$$$$
>  <COMPOUND>
COc1cc2c(cc1OC)C(Sc1ccc(Cl)cc1)c1c(nc(N)c(C#N)c1N)O2 (stereo unspecified)

>  <SYSTEM TESTED>
HL-60(TB) leukemia

>  <GI50>
578 nM

$$$$
>  <COMPOUND>
C=C(c1ccc(C(=O)NCCCn2ccnc2)cc1)c1cc2c(cc1C)C(C)(C)CCC2(C)C

>  <SYSTEM TESTED>
HL-60(TB) leukemia

>  <GI50>
1060 nM

$$$$

Please find the next compound below.
Entry "c1ccc(-c2nc3ccccc3[nH]2)c(OCCCCCOc2ccccc2-c2nc3ccccc3[nH]2)c1" , GI50 reported as 2570 nM

The reported measurements were obtained from PubChem BioAssay (NCI).
